Numbers sourced from PubChem BioAssay (Tox21).

# METHOD: qHTS assay to identify small molecule antagonists of the estrogen related receptor signaling pathway with the pleiotropic PPARgamma coactivator (PGC) from Tox21 10K library (AID 1224841); further: actives are mostly falling curves and most rising ones were filed inactive; nearly all actives have a fitted effect of over 50% in size
# MEASUREMENT_SETUP: PGC/ERR reporter cell line, ONE-Glo luciferase, 18 h; series mostly up to 92.4 µM
Records with an inconclusive call do not appear. Active and inactive are the calls of the source. How the calls were made is not given here.
Permitted responses: active, inactive

Completed entries (count: 5):
C[C@]12CC[C@H](O)C[C@H]1CC[C@@H]1[C@@H]2C[C@@H](O)[C@]2(C)[C@@H](C3=CC(=O)OC3)CC[C@]12O    active
COc1cc(C=O)cc2c1[C@H](COC(N)=O)[C@]1(OC(C)=O)ON2C[C@H]2[C@@H]1N2C(C)=O    active
COP(N)(=S)OC    inactive
O=C1c2ccccc2C(=O)C1C(=O)C(c1ccccc1)c1ccc(Cl)cc1 (centres undefined)    active
C[C@H]1CC[C@@H]2[C@@H](C)[C@H]3[C@H](C[C@H]4[C@@H]5CC=C6CC(O[C@@H]7O[C@H](CO)[C@H](O)[C@H](O[C@@H]8O[C@H](CO)[C@@H](O)[C@H](O)[C@H]8O)[C@H]7O[C@H]7O[C@@H](C)[C@H](O)[C@@H](O)[C@H]7O)CC[C@]6(C)[C@H]5CC[C@]34C)N2C1 (some centres undefined)    inactive

Incoming: Record lookup: outcome of this test for Cc1cc(SCc2sc(-c3ccc(C(F)(F)F)c(F)c3)nc2C)ccc1OCC(=O)O ?
Outgoing: inactive

Incoming: For this compound, state the assay outcome: O=C/C(Cl)=C(/Cl)C(=O)O
Outgoing: inactive

Incoming: For this compound, state the assay outcome: CC(C)(C)C(O)C(Oc1ccc(-c2ccccc2)cc1)n1cncn1 (centres undefined)
Outgoing: active

* * *

# TARGET_DESC: Cytochrome P450 3A4 (Homo sapiens)
# METHOD: Cytochrome P450 Family 3 Subfamily A Member 4 (CYP3A4) small molecule antagonists: luciferase reporter qHTS assay (AID 1671201); further: nearly all actives have a fitted effect of over 50% in size
# MEASUREMENT_SETUP: P450-Glo CYP3A4 enzyme, luciferin luminescence, 1 h; series mostly up to 115 µM
Inconclusive results are not listed. Calls of active or inactive are those of the source. Calls come from the whole dose curve; as a rule, active = well fitted inhibition curve with a large enough effect in the repeat runs; inconclusive = weak or mixed curves; inactive = no such curve, though single readings can be large or run the other way.
# valid calls are active, inactive; nothing else

Known results for compounds:
O=C1c2ccccc2C(=O)C1C(=O)C(c1ccccc1)c1ccc(Cl)cc1 (configuration not stated)    inactive
CC1(c2ccc(Oc3ccccc3)cc2)OC(=O)N(Nc2ccccc2)C1=O (configuration not stated)    active

Incoming: Could you kindly confirm the outcome this assay logged for ClC1=C(Cl)[C@]2(Cl)[C@H]3[C@H]([C@H]4C=C[C@H]3C4)[C@@]1(Cl)C2(Cl)Cl ?
Outgoing: active

Incoming: Record lookup: outcome of this test for C=COCCCl ?
Outgoing: inactive

Incoming: Can you look up the reported call for CCCN(CCC)CCc1c[nH]c2ccccc12 for me?
Outgoing: inactive

Incoming: Hi, sorry to bother you, what did the test record for O=[N+]([O-])c1ccc(Oc2ccc(C(F)(F)F)cc2[N+](=O)[O-])cc1 ?
Outgoing: inactive

Incoming: Recorded test outcome, item Oc1c(Br)c(Br)c(Br)c(Br)c1Br
Outgoing: inactive

Incoming: // outcome(item) with item = CN(C)c1ccc(N=Nc2ccccc2)cc1
Outgoing: inactive

Incoming: What outcome does the record of this test show for Cc1ccc(OP(=O)(Oc2ccccc2)Oc2ccccc2)cc1 ?
Outgoing: inactive

Incoming: State the result this test recorded for CCN .
Outgoing: inactive

Incoming: Status in this test for O=c1c(C2CC(c3ccc(-c4ccc(Br)cc4)cc3)Cc3ccccc32)c(O)sc2ccccc12 (configuration not stated) ?
Outgoing: inactive

Incoming: Recorded call for CCCCCCCCCC[N+](C)(C)CCCCCCCCCC ?
Outgoing: active
